Each record here notes measured ELISA fold over background.
Biological target: T1, Acro COVID S1 (S1N-C82E8) (SARS-CoV-2, UniProt P0DTC2 16-685)
T1 construct: domain: S1
Assay: phage ELISA
# output: number + unit

1-42 (antibody, V domains shown, also called variant 1-42) VH: EVQLLESGGGLVQPGGSLRLSCAASGVTFSSYAMSWVRQAPGKGLEWVSAITGSGGSTYYADSVKGRFTISRDNSKNTLYLQMNSLRAEDTAVYYCAKHGSGTIFGVVIAKYYFDYWGQGTLVTVSS VL: QSALTQPASVSGSPGQSITISCTGTSSDVGRYNLVSWYQQHPGKAPKLMIYEGGKRPSGVSNRFSGSKSGNTASLTISGLQAEDEADYYCCSYASSSTLVFGGGTKLTVL	22.7 fold over background
1-24 (antibody, V domains shown, also called variant 1-24) VH: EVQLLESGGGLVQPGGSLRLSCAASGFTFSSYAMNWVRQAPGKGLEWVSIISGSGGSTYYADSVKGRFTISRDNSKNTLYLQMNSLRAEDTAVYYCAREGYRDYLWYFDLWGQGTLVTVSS VL: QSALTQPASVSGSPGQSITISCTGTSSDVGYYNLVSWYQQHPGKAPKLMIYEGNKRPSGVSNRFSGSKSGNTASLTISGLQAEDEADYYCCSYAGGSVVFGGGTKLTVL	12.9 fold over background
1-29 (antibody, V domains shown, also called variant 1-29) VH: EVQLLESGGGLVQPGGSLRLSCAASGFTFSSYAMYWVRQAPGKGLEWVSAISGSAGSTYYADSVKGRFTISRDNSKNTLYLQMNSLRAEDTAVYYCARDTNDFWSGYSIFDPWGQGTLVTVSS VL: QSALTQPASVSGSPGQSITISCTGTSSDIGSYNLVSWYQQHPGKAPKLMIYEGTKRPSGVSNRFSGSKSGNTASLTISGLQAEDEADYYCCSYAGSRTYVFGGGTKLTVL	1.1 fold over background

Here is another binder to look at.
(Q) Reported ELISA fold over background, binder 1-4 (antibody, V domains shown, also called variant 1-4) VH: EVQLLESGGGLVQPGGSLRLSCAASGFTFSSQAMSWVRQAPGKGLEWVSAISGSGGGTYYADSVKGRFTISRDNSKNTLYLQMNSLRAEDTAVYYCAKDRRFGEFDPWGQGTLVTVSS VL: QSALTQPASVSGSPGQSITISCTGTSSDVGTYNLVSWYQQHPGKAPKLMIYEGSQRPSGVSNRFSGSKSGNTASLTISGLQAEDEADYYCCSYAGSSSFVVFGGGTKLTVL : ____
(A) 1 fold over background
